Molecular target: ligand binding domain of human ROR gamma (Homo sapiens)
Construct: NM_001001523; expressed in transfected cells; host or cells: HEK293T
Test: ROR gamma reporter gene assay (GAL4-RORγ LBD luciferase, Dual-Glo)
Format: cell-based
Conditions: HEK293T cells transfected with pM-ROR gamma, 8 concentrations 3.5 nM to 10.5 μM, 24 h incubation; read-out: result (pIC50, inhibition of RORγ transcriptional activity) (converted)
Property: IC50 (pM)

* O=C(CN(Cc1ccccn1)C(=O)c1cnn([C@H]2CC[C@H](C(=O)O)CC2)c1C(F)(F)F)c1c(Cl)cncc1Cl [Example 103] | 1.91e+06
* COc1cccc(O)c1C(=O)CN(Cc1cc(F)cc(F)c1)C(=O)c1cnn([C@H]2CC[C@H](C(=O)O)CC2)c1C(F)(F)F [Example 7] | 4.57e+06
* Cc1cc(Cl)c(C(=O)CN(C(=O)c2cnn([C@H]3CC[C@](C)(C(=O)O)CC3)c2C)[C@H]2C[C@@H]3[C@H](C2)C3(C)C)c(Cl)c1 [Example 365] | 30900
* Cc1[nH]c2cccc(Cl)c2c1CCN(CC(C)(C)C)C(=O)c1cnn([C@H]2CC[C@](C)(C(=O)O)CC2)c1C(F)(F)F [Example 360] | 178000

###

Target: ligand binding domain of human ROR gamma (Homo sapiens)
Construct: NM_001001523; expressed in transfected cells; host or cells: HEK293T
Sequence (P51449 247-497 isoform P51449-2): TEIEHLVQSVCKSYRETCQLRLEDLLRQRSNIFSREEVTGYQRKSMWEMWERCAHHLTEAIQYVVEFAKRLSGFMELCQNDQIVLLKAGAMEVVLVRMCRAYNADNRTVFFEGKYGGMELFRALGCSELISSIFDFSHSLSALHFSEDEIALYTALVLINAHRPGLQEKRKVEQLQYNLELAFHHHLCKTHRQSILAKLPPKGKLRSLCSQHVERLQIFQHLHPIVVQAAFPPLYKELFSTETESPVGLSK
Test: ROR gamma reporter gene assay (GAL4-RORγ LBD luciferase, Dual-Glo)
Format: cell-based
Details: HEK293T cells transfected with pM-ROR gamma, 8 concentrations 3.5 nM to 10.5 μM, 24 h incubation; read-out: result (pIC50, inhibition of RORγ transcriptional activity) (converted)
Method: Luciferase reporter gene assay was used to assess inhibition of RORγ transcriptional activity. ROR gamma expression vector was prepared by inserting the ligand binding domain of human ROR gamma (amino acid 247-497 of Genbank Accession NO. NM_001001523) adjacent to the yeast GAL4 transcription factor DNA binding domain in the expression vector pM (Clontech). […] Data was plotted and pIC50 values were calculated using the XLfit program (ID Business Solutions Ltd.).
# IC50 per entry
Property: IC50

• CN1C2CCC1CC(N(CC(=O)c1c(Cl)cc(F)cc1Cl)C(=O)c1cnn([C@H]3CC[C@](C)(C(=O)O)CC3)c1C(F)(F)F)C2 (stereo partly drawn) = > 3.47e+06 pM
• CC(C)N1CCC(N(CC(=O)c2c(Cl)cc(F)cc2Cl)C(=O)c2cnn([C@H]3CC[C@](C)(C(=O)O)CC3)c2C(F)(F)F)CC1 = > 1.05e+07 pM
• CC(C)(C)C(=O)N1CC(N(CC(=O)c2c(Cl)cncc2Cl)C(=O)c2cnn([C@H]3CC[C@H](C(=O)O)CC3)c2C(F)(F)F)C1 = > 1e+07 pM

###

Measured IC50 of individual entries
Target: ligand binding domain of human ROR gamma (Homo sapiens)
Construct: NM_001001523; expressed in transfected cells; host or cells: HEK293T
Test: ROR gamma reporter gene assay (GAL4-RORγ LBD luciferase, Dual-Glo)
Assay type: cell-based
Settings: HEK293T cells transfected with pM-ROR gamma, 8 concentrations 3.5 nM to 10.5 μM, 24 h incubation; read-out: result (pIC50, inhibition of RORγ transcriptional activity) (converted)
Property: IC50

* C[C@]1(C(=O)O)CC[C@H](n2ncc(C(=O)N(CC(=O)c3c(Cl)cncc3Cl)Cc3ccc(F)cc3)c2C(F)(F)F)CC1 | 33900 pM
* Cc1cc(Cl)c(C(=O)CN(CC2CC(C)(C)C2)C(=O)c2cnn(C34CCC(C(=O)O)(CC3)CC4)c2C(F)(F)F)c(Cl)c1 | < 3470 pM
* Cc1noc(C)c1C(=O)CN(Cc1cc(F)cc(F)c1)C(=O)c1cnn([C@H]2CC[C@H](C(=O)O)CC2)c1C(F)(F)F | > 1e+07 pM
* CC1(C)[C@@H]2C[C@H](N(C[C@@H](O)c3ncccc3Cl)C(=O)c3cnn([C@H]4CC[C@](C)(C(=O)O)CC4)c3C(F)(F)F)C[C@@H]21 | 141000 pM
* Cc1ncc(Cl)c(C(O)CN(C(=O)c2cnn([C@H]3CC[C@](C)(C(=O)O)CC3)c2C(F)(F)F)[C@H]2C[C@@H]3[C@H](C2)C3(C)C)n1 (some centres unmarked) | 479000 pM
* O=C(CN(Cc1ccc(F)cc1)C(=O)c1cnn([C@H]2CCC(C(=O)O)C2)c1C(F)(F)F)c1c(Cl)cncc1Cl (stereo in doubt) | 575000 pM
* CC1(C)CC(CN(CC(=O)c2c(Cl)cccc2C(F)(F)F)C(=O)c2cnn([C@H]3CC[C@](C)(C(=O)O)CC3)c2C(F)(F)F)C1 | 6030 pM
* O=C(CN(C(=O)c1cnn([C@H]2CC[C@H](C(=O)O)CC2)c1C(F)(F)F)C1CCOCC1)c1c(Cl)cncc1Cl | > 1e+07 pM
* CC1(C)C(CN(CC(=O)c2c(Cl)cncc2Cl)C(=O)c2cnn(C34CCC(C(=O)O)(CC3)CC4)c2C(F)(F)F)C1(C)C | 8130 pM
* N#C[C@]1(C(=O)O)CC[C@@H](n2ncc(C(=O)N(CC(=O)c3c(Cl)cncc3Cl)Cc3ccc(F)cc3)c2C(F)(F)F)CC1 | > 1e+07 pM
* CC1(C)[C@@H]2C[C@H](N(CC(=O)c3ncccc3Cl)C(=O)c3cnn([C@H]4CC[C@](C)(C(=O)O)CC4)c3C(F)(F)F)C[C@@H]21 | 676000 pM
* O=C(CN(Cc1cc(F)cc(F)c1)C(=O)c1cnn([C@H]2CC[C@H](C(=O)O)CC2)c1C(F)(F)F)c1c(F)cncc1F | 4.07e+06 pM
* O=C(CN(Cc1ccncc1)C(=O)c1cnn([C@H]2CC[C@H](C(=O)O)CC2)c1C(F)(F)F)c1c(Cl)cncc1Cl | 1.7e+06 pM
* O=C(CN(CC1CCCC1)C(=O)c1cnn([C@H]2CC[C@H](C(=O)O)CC2)c1C(F)(F)F)c1c(Cl)cncc1Cl | 75900 pM

###

Target: ligand binding domain of human ROR gamma (Homo sapiens, UniProt P51449)
Construct: NM_001001523; expressed in transfected cells; host or cells: HEK293T
Experiment: ROR gamma reporter gene assay (GAL4-RORγ LBD luciferase, Dual-Glo)
Format: cell-based
Details: HEK293T cells transfected with pM-ROR gamma, 8 concentrations 3.5 nM to 10.5 μM, 24 h incubation; read-out: result (pIC50, inhibition of RORγ transcriptional activity) (converted)
Property: IC50 (pM)

* CC1(C)CC(CN(CC(=O)c2c(Cl)cc(F)cc2Cl)C(=O)c2cnn(C34CCC(C(=O)O)(CC3)CC4)c2C(F)(F)F)C1 | 5370
* CC1(C)CCC(N(CC(=O)c2c(Cl)cc(F)cc2Cl)C(=O)c2cnn([C@H]3C[C@@H](C(=O)O)C3)c2C(F)(F)F)CC1 | 1.02e+06
* CC1(C)C(CN(CC(=O)c2c(Cl)cncc2Cl)C(=O)c2cnn([C@H]3CC[C@](C)(C(=O)O)CC3)c2C(F)(F)F)C1(C)C | 10700

###

Listed next: entries and their corresponding IC50.
Biological target: human RORγ-LBD (Homo sapiens)
Construct: made in house; host or cells: E. coli (BL-21)
Experiment: ROR gamma coactivator peptide recruitment Alphascreen assay (RORγ-LBD binding to GRIP1 coactivator peptide)
Assay type: biochemical
Conditions: 5 nM human RORγ-LBD, 30 nM 7-β-hydroxycholesterol, 50 nM biotinylated GRIP1 coactivator peptide, overnight incubation at room temperature; read-out: result (pIC50, RORγ coactivator peptide recruitment Alphascreen assay) (converted)
Property: IC50 (µM)

- CC1(C)[C@@H]2C[C@H](N(CC(=O)c3c(F)cccc3Cl)C(=O)c3cnn([C@H]4CC[C@](C)(C(=O)O)CC4)c3C(F)(F)F)C[C@@H]21 [Example 658]: 0.00195
- C[C@]1(C(=O)O)CC[C@H](n2ncc(C(=O)N(CC(=O)c3c(Cl)cncc3Cl)CC3(F)CC3)c2C(F)(F)F)CC1 [Example 593]: 0.0331
- CC1(C)CC(CN(CC(=O)c2c(F)cccc2F)C(=O)c2cnn([C@H]3CC[C@](C)(C(=O)O)CC3)c2C(F)(F)F)C1 [Example 598]: 0.115
- Cc1cc(Cl)c(C(=O)CN(CC(C)(C)C)C(=O)c2cnn([C@H]3CC[C@](C)(C(=O)O)CC3)c2C(F)(F)F)c(Cl)c1 [Example 568]: 0.00339
- O=C(CN(C(=O)c1cnn([C@H]2CC[C@@H](C(=O)O)CC2)c1C(F)(F)F)[C@H]1CCC12CCC2)c1c(Cl)cccc1Cl [Example 642]: 0.024
- COc1ncc(Cl)c(C(=O)CN(CC(C)(C)C)C(=O)c2cnn([C@H]3CC[C@](C)(C(=O)O)CC3)c2C(F)(F)F)c1Cl [Example 753]: 0.0251
- C[C@H]1CC[C@H](CN(CC(=O)c2c(Cl)cncc2Cl)C(=O)c2cnn([C@H]3CC[C@](C)(C(=O)O)CC3)c2C(F)(F)F)O1 [Example 705]: 0.0589
- C[C@H]1C[C@](C)(C(=O)O)CC[C@H]1n1ncc(C(=O)N(CC(=O)c2c(Cl)cncc2Cl)CC(C)(C)C)c1C(F)(F)F (stereo in doubt) [Example 842]: 0.309
- CC(C)(C)CN(CCc1c(Cl)cccc1Cl)C(=O)c1cnn([C@H]2CC[C@H](C(=O)O)CC2)c1C(F)(F)F [Example 523]: 0.00871
- Cc1ncc(Cl)c(C(=O)CN(CC(C)(C)C)C(=O)c2cnn([C@H]3CC[C@](C)(C(=O)O)CC3)c2C(F)(F)F)c1Cl [Example 715]: 0.0105
- C[C@H](C(=O)O)[C@H]1CC[C@@H](n2ncc(C(=O)N(CC(=O)c3c(Cl)cncc3Cl)Cc3cc(F)cc(F)c3)c2C(F)(F)F)CC1 [Example 786]: 0.0347
- C[C@H]1C[C@H](n2ncc(C(=O)N(CC(=O)c3c(Cl)cncc3Cl)CC3(F)CC3)c2C(F)(F)F)CC[C@H]1C(=O)O (stereo in doubt) [Example 737]: 0.0141
